Where these numbers come from: patent US20250313625A1

Consider the following binders; for each one, report its EC50.
Target: T1, hFc tagged human LAG3 D1-D2 recombinant protein (human, UniProt P18627 23-261)
T1 construct: range 23-261; generated by Chempartner; also called hLAG3 D1-D2; not shown: human IgG Fc tag
T1 sequence (looked up): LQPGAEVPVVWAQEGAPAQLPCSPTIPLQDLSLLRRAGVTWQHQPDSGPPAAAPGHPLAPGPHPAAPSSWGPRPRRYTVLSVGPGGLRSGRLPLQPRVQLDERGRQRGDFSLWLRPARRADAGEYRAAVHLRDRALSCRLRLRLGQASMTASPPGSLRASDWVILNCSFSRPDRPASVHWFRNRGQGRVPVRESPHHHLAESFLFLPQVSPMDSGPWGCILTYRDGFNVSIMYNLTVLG
Test: ELISA, coated hFc-hLAG3 D1-D2
Give bare numbers, in nM.

>  <binder>
Antibody 023 (antibody, V domains shown, mouse hybridoma antibody) VH: QIQLVQSGPVLKKPGETVKISCKASGYTFTESPMNWVKQAPGRGFKWMGMIYTDTGEPTYAEEFKGRFAFSLETSASTAYLQINNLKSEDTATYFCVSDYGSILYWYFDVWGTGTTVTVSS VL: DIVMTQSHKFMSTSVGDRVSITCKASQDVSTAVAWYQQTPGQSPKLLIYSASYRYTGVPDRFTGSGSGTDFTFTISSVQAEDLAVYYCQQHYNSPPTFGAGTKLELK

>  <valueType>
EC50

>  <unitText>
nM

>  <measurement>
0.05

$$$$

Now take the following binder into account.
Measured EC50 of Antibody 038 (antibody, V domains shown, mouse hybridoma antibody) VH: DVQVQESGPGLVKPSQSLSLTCSVTGYSITSGYYWNWIRQFPGNKLEWMGYISYDGSNEYNLSLKNRLSITRDTSKNQFFLKLNSVTTEDTATYYCAREEDGYYGGMDYWGQGTSVTVSS VL: DIVMTQSHKFMSASVGVRVSITCRASQDVDTAVAWYQQKPGQSPKLLIYWASTRHTGVPDRFTGSGSGTDFTLTISNVQSEDLADYFCQQYSSYPYTFGGGTKLEIK : 0.07
